# TARGET_ENTITY: BDZ receptor
# ASSAY_OVERVIEW: BDZ receptor binding assay (displacement of tritium labeled diazepam)
# CONDITION: cerebral cortex of Wistar rats; 2nM tritium labeled diazepam; 0 °C for 60 minutes; Ki calculated from IC50
ENDPOINT: log10 Ki (log10 of the value in nM)
Short version: log10 scale, Ki, nM.

Challenge: Form field: reported log10 Ki of O=c1c2c[nH]c3ccccc3c-2nn1C1=CCOC1 [I-38]
Response given: -0.23

Challenge: Form field: reported log10 Ki of COc1ccc2[nH]cc3c(=O)n(C4=CCOC4)nc-3c2c1 [I-11]
Response given: -0.16

Challenge: Form field: reported log10 Ki of C/C=C/n1nc2c3ccccc3[nH]cc-2c1=O [I-24]
Response given: 0.00

Challenge: Form field: reported log10 Ki of COc1ccc2c3nn(C4=CCCC4)c(=O)c-3c[nH]c2c1 [I-34]
Response given: 0.32

Challenge: Form field: reported log10 Ki of CC1CC=C(n2nc3c4ccccc4[nH]cc-3c2=O)CC1 (centres unmarked) [I-25]
Response given: 0.49

Challenge: Form field: reported log10 Ki of CC1(C)C=C(n2nc3c4ccccc4[nH]cc-3c2=O)CO1 [I-39]
Response given: -0.54

Challenge: Form field: reported log10 Ki of CC(C)/C=C/n1nc2c3ccccc3[nH]cc-2c1=O [I-21]
Response given: -0.01

Challenge: Form field: reported log10 Ki of O=c1c2c[nH]c3ccccc3c-2nn1C1=CCCCC1 [I-16]
Response given: 0.18

Challenge: Form field: reported log10 Ki of Cc1ccc2[nH]cc3c(=O)n(C4=CCCC4)nc-3c2c1 [I-36]
Response given: -0.32

Challenge: Form field: reported log10 Ki of O=c1c2c[nH]c3ccc(F)cc3c-2nn1C1=CCCC1 [I-31]
Response given: -0.32

Challenge: Form field: reported log10 Ki of O=c1c2c[nH]c3ccccc3c-2nn1C1=CCCC1 [I-1]
Response given: -0.28
